Numbers sourced from patent US20260365670A1.

Examples of compounds with documented IC50 follow.
assay.system: EGFR (C797S L858R) (Homo sapiens, UniProt P00533, C797S/L858R)
Construct: purchased signalchem
Sequence (P00533 25-1210 C797S/L858R): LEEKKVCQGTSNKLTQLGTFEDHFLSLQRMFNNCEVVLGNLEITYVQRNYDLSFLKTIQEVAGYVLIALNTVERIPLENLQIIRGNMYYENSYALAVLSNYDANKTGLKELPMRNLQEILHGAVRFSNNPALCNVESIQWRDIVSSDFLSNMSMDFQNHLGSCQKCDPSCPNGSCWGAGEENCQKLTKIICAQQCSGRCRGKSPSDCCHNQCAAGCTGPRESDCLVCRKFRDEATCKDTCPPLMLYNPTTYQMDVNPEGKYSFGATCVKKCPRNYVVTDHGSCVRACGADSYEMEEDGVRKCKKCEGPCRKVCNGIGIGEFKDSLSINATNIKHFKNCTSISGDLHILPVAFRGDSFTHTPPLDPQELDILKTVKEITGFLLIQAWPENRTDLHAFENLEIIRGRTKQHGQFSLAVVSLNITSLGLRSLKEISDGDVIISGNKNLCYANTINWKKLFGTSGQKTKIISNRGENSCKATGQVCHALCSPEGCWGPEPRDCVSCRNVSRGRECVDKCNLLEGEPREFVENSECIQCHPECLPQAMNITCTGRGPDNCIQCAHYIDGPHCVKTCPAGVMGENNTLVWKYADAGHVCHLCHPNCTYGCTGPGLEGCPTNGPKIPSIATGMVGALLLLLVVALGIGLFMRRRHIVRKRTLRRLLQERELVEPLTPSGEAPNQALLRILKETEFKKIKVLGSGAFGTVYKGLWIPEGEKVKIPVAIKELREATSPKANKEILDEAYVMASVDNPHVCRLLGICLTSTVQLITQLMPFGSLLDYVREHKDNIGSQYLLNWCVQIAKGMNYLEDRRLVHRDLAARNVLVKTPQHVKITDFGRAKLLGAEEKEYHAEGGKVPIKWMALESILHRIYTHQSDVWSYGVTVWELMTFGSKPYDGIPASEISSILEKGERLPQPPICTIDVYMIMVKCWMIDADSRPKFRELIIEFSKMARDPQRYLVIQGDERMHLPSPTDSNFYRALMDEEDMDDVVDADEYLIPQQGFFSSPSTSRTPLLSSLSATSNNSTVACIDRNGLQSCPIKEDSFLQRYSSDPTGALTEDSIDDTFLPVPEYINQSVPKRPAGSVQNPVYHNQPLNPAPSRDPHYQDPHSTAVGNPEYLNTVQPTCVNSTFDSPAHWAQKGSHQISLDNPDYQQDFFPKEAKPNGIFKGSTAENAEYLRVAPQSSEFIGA
assay.explanation: Inhibition of EGFR (C797S L858R) biochemical enzymatic activity (HTRF)
assay.conditions: EGFR L858-C797S, 1 mM ATP, 1 h, room temperature, read-out: IC50 (nM) @L858-C797S
property.name: IC50 (nM)

1. C[C@@H]1CCCOc2c(cnn2C)-c2cc(cn(C)c2=O)C(=O)Nc2nc3ccc(N4CCC(N5CCOCC5)C4)cc3n2C1 (stereo partly drawn) ... 93
2. C[C@@H]1CCCOc2c(cnn2C)-c2cc(cn(C)c2=O)C(=O)Nc2nc3ccc(N4CC(F)(CN(C)C)C4)cc3n2C1 ... 19
3. Cn1ncc2c1OCCN1CC3CCC(C3)(C1)n1c(nc3ccc(N4CCC(N5CC(F)C5)C4)cc31)NC(=O)c1cc-2c(=O)n(C)c1 (single isomer, unassigned) [Example A94B] ... 20
4. CN(C)CCN(C)c1ccc2nc3n(c2c1)C12CCC(CN(CCOc4c(cnn4C)-c4cc(cn(C)c4=O)C(=O)N3)C1)C2 (single isomer, unassigned) [Example A85B] ... 5.5

====

assay.system: EGFR Exon19Del/T790M (Homo sapiens, UniProt P00533, DEL746-750/T790M)
Construct: purchased Carna Bio
Sequence (P00533 with tags, fused parts or gaps DEL746-750/T790M limits assumed): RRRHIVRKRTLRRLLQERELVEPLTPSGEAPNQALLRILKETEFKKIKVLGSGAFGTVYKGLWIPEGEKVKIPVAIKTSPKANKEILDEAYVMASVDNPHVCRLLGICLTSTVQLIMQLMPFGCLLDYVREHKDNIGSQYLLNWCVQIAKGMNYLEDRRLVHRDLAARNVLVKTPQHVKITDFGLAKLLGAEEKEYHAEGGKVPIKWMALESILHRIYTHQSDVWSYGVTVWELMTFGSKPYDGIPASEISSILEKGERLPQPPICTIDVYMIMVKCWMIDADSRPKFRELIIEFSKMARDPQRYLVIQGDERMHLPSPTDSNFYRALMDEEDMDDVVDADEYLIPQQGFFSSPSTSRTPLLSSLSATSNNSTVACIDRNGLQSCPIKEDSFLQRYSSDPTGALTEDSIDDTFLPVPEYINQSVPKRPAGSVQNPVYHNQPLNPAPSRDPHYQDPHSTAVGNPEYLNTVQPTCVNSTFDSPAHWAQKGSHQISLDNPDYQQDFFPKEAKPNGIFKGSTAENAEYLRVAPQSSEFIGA
assay.explanation: Inhibition of EGFR Exon19Del/T790M biochemical enzymatic activity (HTRF)
assay.conditions: EGFR Del19-T790M, 1 mM ATP, 1 h, room temperature, read-out: IC50 (nM) @Del19-T790M
Examples of compounds with documented log10(IC50) follow.
property.name: log10(IC50) (log10 of the value in nM)

1) CN1CCC2(CCN(c3ccc4nc5n(c4c3)C34CCC(CN(CCOc6c(cnn6C)-c6cc(cn(C)c6=O)C(=O)N5)C3)C4)CC2)C1 (single isomer, unassigned) [Example A82A] ... 3.15
2) C[C@@H]1CCCOc2c(cnn2C)-c2cc(cn(C)c2=O)C(=O)Nc2nc3ccc(N4CC5(CN(C)C5)C4)cc3n2C1 ... 0.65
3) C[C@@H]1CCCOc2c(cnn2C)-c2cc(cn(C)c2=O)C(=O)Nc2nc3ccc(N(C)CCN(C)C)cc3n2C1 ... 0.40
4) CN(C)C1CCN(c2ccc3nc4n(c3c2)C23CCC(CN(CCOc5c(cnn5C)-c5cc(cn(C)c5=O)C(=O)N4)C2)C3)CC1 (single isomer, unassigned) [Example A64B] ... 0.26
5) Cn1ncc2c1OCCN1CC3CCC(C3)(C1)n1c(nc3ccc(N4CCC(N5CC(F)C5)C4)cc31)NC(=O)c1cc-2c(=O)n(C)c1 (single isomer, unassigned) [Example A94B] ... 1.04
6) CCN1CCOc2c(cnn2C)-c2cc(cn(C)c2=O)C(=O)Nc2nc3ccccc3n2C(C)C1 (centres unmarked) ... 3.18

====

assay.system: EGFR Exon19Del (Homo sapiens, UniProt P00533, DEL746-750)
Construct: purchased Carna Bio
Sequence (P00533 with tags, fused parts or gaps DEL746-750 limits assumed): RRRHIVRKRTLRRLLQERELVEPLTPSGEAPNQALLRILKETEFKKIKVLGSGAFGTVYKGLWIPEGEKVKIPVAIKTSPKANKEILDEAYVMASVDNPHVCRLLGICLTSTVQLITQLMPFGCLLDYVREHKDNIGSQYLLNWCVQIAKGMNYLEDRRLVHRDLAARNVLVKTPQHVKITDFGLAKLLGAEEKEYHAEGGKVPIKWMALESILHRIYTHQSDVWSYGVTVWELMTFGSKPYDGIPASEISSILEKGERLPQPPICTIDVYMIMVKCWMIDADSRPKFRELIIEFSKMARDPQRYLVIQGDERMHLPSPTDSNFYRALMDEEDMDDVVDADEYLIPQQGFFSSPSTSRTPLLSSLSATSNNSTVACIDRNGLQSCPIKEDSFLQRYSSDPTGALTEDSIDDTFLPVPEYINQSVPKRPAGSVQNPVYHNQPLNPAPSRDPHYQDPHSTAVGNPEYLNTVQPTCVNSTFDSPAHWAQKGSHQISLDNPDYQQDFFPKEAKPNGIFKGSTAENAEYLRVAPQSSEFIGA
assay.explanation: Inhibition of EGFR Exon19Del biochemical enzymatic activity (HTRF)
assay.conditions: EGFR Del19, 1 mM ATP, 1 h, room temperature, read-out: IC50 @Del19
Examples of compounds with documented log10 of IC50 follow.
property.name: log10 of IC50 (log10 of the value in nM)

1) Cc1cc2cc(n1)-c1cnn(C3CC3)c1OCCN(CC(F)(F)F)CCn1c(nc3ccccc31)NC2=O ... 2.29
2) CN1CC2CN(c3ccc4nc5n(c4c3)C34CCC(CN(CCOc6c(cnn6C)-c6cc(cn(C)c6=O)C(=O)N5)C3)C4)CC2C1 (single isomer, unassigned) [Example A68B] ... 0.08
3) CN(C)[C@H]1CCN(c2ccc3nc4n(c3c2)C23CCC(CC2)CN(CCOc2c(cnn2C)-c2cc(cn(C)c2=O)C(=O)N4)C3)C1 ... 1.34
4) CN1CCC12CCN(c1ccc3nc4n(c3c1)C13CCC(CC1)CN(CCOc1c(cnn1C)-c1cc(cn(C)c1=O)C(=O)N4)C3)CC2 ... 0.83
5) CN(C)CCN(C)c1ccc2nc3n(c2c1)C12CCC(CN(CCOc4c(cnn4C)-c4cc(cn(C)c4=O)C(=O)N3)C1)C2 (single isomer, unassigned) [Example A85A] ... 2.14
6) CN1CCN(c2ccc3nc4n(c3c2)CCN(CC(F)(F)F)CCOc2c(cnn2C)-c2cc(cn(C)c2=O)C(=O)N4)CC1 ... 1.08
7) CN(C)C1CCN(c2ccc3nc4n(c3c2)C23CCC(CC2)CN(CCOc2c(cnn2C)-c2cc(cn(C)c2=O)C(=O)N4)C3)CC1 ... 0.88
8) C[C@@H]1CCCNc2c(cnn2C)-c2cc(cn(C)c2=O)C(=O)Nc2nc3ccc(N4CCN(C)CC4)cc3n2C1 ... 2.28
9) CN(C)CCCN(C)c1ccc2nc3n(c2c1)C12CCC(CN(CCOc4c(cnn4C)-c4cc(cn(C)c4=O)C(=O)N3)C1)C2 (single isomer, unassigned) [Example A89B] ... 0.28
10) C[C@@H]1CCCOc2ccc(F)cc2-c2cc(cn(C)c2=O)C(=O)Nc2nc3ccc(N4CCN(C)CC4)cc3n2C1 ... 0.45

====

Examples of molecules with documented GI50 follow.
Tested on: PC-9
assay.explanation: Cell proliferation assay, PC-9 cells (CellTiter-Glo, 72 hours)
Format: cell-based
assay.conditions: Homo sapiens, PC-9, 72 h, PC9 cells, read-out: GI50 PC9
property.name: GI50 (nM)

1. CN1CCN(c2cc3c(cc2F)nc2n3C34CCC(CC3)CN(CCOc3c(cnn3C)-c3cc(cn(C)c3=O)C(=O)N2)C4)CC1 [Example A115] ... 94
2. Cc1cc2cc(n1)-c1cnn(C)c1OCCN1CC3CCC(CC3)(C1)n1c(nc3ccccc31)NC2=O [Example B1] ... 410
3. Cc1cc2cc(n1)-c1cnn(C)c1OCCN1CC3CCC(CC3)(C1)n1c(nc3ccc(N4CC[C@H](N(C)C)C4)cc31)NC2=O [Example B28] ... 98
4. Cn1ncc2c1OCCN1CC3CCC(CC3)(C1)n1c(nc3cc(F)c(N4CCOCC4)cc31)NC(=O)c1cc-2c(=O)n(C)c1 [Example A113] ... 147
5. Cn1ncc2c1OCCN1CC3CCC(C3)(C1)n1c(nc3cc(F)ccc31)NC(=O)c1cc-2c(=O)n(C)c1 (stereo not drawn) [Example A117B] ... 57
6. CN(C)[C@@H]1CCN(c2ccc3nc4n(c3c2)C23CCC(CC2)CN(CCOc2c(cnn2C)-c2cc(cn(C)c2=O)C(=O)N4)C3)C1 [Example A121] ... 27
7. Cc1cc2cc(n1)-c1cnn(C3CC3)c1OCCN(CC(F)(F)F)CCn1c(nc3ccccc31)NC2=O [Example B6] ... 145
8. CN1CCC2(CC1)CCN(c1ccc3nc4n(c3c1)C13CCC(CC1)CN(CCOc1c(cnn1C)-c1cc(cn(C)c1=O)C(=O)N4)C3)C2 [Example A123] ... 25
9. Cc1cc2cc(n1)-c1cnn(C)c1OCCN(CC(F)F)CCn1c(nc3ccccc31)NC2=O [Example B5] ... 115
10. CN1CCC2CN(c3ccc4nc5n(c4c3)C34CCC(CC3)CN(CCOc3c(cnn3C)-c3cc(cn(C)c3=O)C(=O)N5)C4)CC21 (stereo not drawn) [Example A127] ... 34
11. CN(C)CCN(C)c1ccc2nc3n(c2c1)C12CCC(CC1)CN(CCOc1c(cnn1C)-c1cc(cn(C)c1=O)C(=O)N3)C2 [Example A124] ... 27
12. Cc1cc2cc(n1)-c1cnn(C)c1OCCN1CC3CCC(C3)(C1)n1c(nc3ccccc31)NC2=O (stereo not drawn) [Example B8B] ... 63

====

assay.system: EGFR wild type (Homo sapiens, UniProt P00533)
Construct: purchased Carna Bio
Sequence (P00533 25-1210): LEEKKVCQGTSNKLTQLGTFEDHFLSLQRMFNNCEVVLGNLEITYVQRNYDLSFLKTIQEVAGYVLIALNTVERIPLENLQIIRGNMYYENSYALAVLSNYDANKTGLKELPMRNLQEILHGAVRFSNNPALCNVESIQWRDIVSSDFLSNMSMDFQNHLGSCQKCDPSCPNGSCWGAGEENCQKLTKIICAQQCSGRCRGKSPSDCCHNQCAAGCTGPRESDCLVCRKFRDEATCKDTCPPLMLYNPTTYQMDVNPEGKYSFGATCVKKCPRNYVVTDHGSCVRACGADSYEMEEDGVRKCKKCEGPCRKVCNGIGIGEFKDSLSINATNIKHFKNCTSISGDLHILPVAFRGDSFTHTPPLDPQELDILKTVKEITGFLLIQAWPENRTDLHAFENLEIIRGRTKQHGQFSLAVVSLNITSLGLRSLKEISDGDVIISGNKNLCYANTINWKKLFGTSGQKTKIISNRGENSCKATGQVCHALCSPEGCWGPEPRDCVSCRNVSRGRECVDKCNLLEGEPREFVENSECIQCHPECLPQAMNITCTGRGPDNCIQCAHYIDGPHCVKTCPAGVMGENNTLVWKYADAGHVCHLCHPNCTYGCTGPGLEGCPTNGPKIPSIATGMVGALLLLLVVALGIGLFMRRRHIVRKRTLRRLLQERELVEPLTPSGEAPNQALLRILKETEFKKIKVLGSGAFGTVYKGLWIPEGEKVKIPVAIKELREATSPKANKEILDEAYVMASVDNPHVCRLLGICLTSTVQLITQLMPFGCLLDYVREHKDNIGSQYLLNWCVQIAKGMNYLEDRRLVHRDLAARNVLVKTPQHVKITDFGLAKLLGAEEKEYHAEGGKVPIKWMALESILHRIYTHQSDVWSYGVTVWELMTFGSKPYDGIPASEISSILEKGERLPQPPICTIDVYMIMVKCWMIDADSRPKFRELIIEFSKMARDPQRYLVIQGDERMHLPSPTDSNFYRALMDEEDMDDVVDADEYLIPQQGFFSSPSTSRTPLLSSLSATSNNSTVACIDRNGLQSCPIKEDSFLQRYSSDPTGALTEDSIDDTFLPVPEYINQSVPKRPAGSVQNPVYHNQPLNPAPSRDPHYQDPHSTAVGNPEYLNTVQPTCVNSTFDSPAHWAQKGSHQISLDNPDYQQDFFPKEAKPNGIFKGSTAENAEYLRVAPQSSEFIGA
assay.explanation: Inhibition of EGFR wild type biochemical enzymatic activity (HTRF)
assay.conditions: EGFR wild type, 1 mM ATP, 1 h at room temperature, read-out: IC50 @WT
Examples of compounds with documented IC50 follow.
property.name: IC50

1. Cc1cc2cc(n1)-c1cnn(C)c1OCCN1CC3CCC(C3)(C1)n1c(nc3ccc(N4CCC(N5CCOCC5)C4)cc31)NC2=O (single isomer, unassigned) [Example B44A1] ... > 5 µM
2. Cc1cc2cc(n1)-c1cnn(C)c1OCCN1CC3CCC(C3)(C1)n1c(nc3ccc(N4CCC5(CCN(C)CC5)C4)cc31)NC2=O (single isomer, unassigned) [Example B51A] ... > 5 µM
3. Cc1cc2cc(n1)-c1cnn(C)c1OCCN1CC3CCC(CC3)(C1)n1c(nc3ccc(N4CC5CN(C)CC5C4)cc31)NC2=O (stereo not drawn) [Example B34] ... > 5 µM
